# method-description: Antiproliferative activity against human RKOP3 cells assessed as reduction in cell viability measured after 48 hrs by MTT assay
# Format: functional, cell-based
pIC50: −log10 of the molar value.
reported-endpoint: pIC50

molecule="CCC(=O)O/N=C1\\C=C2C[C@H](C)[C@@]3(C)Cc4cc(OC)c(OC)c(OC)c4C23C(OC)=C1OC (stereo partly specified)" reported_endpoint=pIC50 numeric_readout=4.22
molecule="CCCCC(=O)O/N=C1\\C=C2C[C@H](C)[C@@]3(C)Cc4cc(OC)c(OC)c(OC)c4C23C(OC)=C1OC (stereo partly specified)" reported_endpoint=pIC50 numeric_readout=4.83
molecule="COC1=C(OC)C23C(=C/C1=N\\OC(=O)c1c(Cl)cc(Cl)cc1Cl)C[C@H](C)[C@@]2(C)Cc1cc(OC)c(OC)c(OC)c13 (stereo partly specified)" reported_endpoint=pIC50 numeric_readout=4.39
molecule="COC1=C(OC)C23C(=C/C1=N\\OC(=O)C(C)C)C[C@H](C)[C@@]2(C)Cc1cc(OC)c(OC)c(OC)c13 (stereo partly specified)" reported_endpoint=pIC50 numeric_readout=4.81
molecule="COC1=C(OC)C23C(=C/C1=N\\OC(=O)c1ccc(F)cc1)C[C@H](C)[C@@]2(C)Cc1cc(OC)c(OC)c(OC)c13 (stereo partly specified)" reported_endpoint=pIC50 numeric_readout=4.68
molecule="COC1=C(OC)C23C(=C/C1=N\\OC(=O)c1ccc(Br)cc1)C[C@H](C)[C@@]2(C)Cc1cc(OC)c(OC)c(OC)c13 (stereo partly specified)" reported_endpoint=pIC50 numeric_readout=5.01

###

# method-description: Antiproliferative activity against human RKOP3 cells assessed as reduction in cell viability measured after 48 hrs by MTT assay
# Assay type: functional, cell-based
pIC50: −log10 of the molar value.
reported-endpoint: pIC50

compound="CCCCCCCCCC(=O)O/N=C1\\C=C2C[C@H](C)[C@@]3(C)Cc4cc(OC)c(OC)c(OC)c4C23C(OC)=C1OC (some centres not stated)" reported_endpoint=pIC50 numeric_readout=5.47
compound="CCOC(=O)CCC(=O)O/N=C1\\C=C2C[C@H](C)[C@@]3(C)Cc4cc(OC)c(OC)c(OC)c4C23C(OC)=C1OC (some centres not stated)" reported_endpoint=pIC50 numeric_readout=4.65
compound="COC1=C(OC)C23C(=C/C1=N\\O)C[C@H](C)[C@@]2(C)Cc1cc(OC)c(OC)c(OC)c13 (some centres not stated)" reported_endpoint=pIC50 numeric_readout=4.25
compound="COc1cccc2c1C(=O)c1c(O)c3c(c(O)c1C2=O)C[C@@](O)(C(=O)CO)C[C@@H]3O[C@H]1C[C@H](N)[C@H](O)[C@H](C)O1 [DOXORUBICIN]" reported_endpoint=pIC50 numeric_readout=5.65
compound="COC1=C(OC)C23C(=CC1=O)C[C@H](C)[C@@]2(C)Cc1cc(OC)c(OC)c(OC)c13 (some centres not stated)" reported_endpoint=pIC50 numeric_readout=4.30
compound="COc1cc2c(c(OC)c1OC)-c1c(cc(OC)c(OC)c1OC)C[C@](C)(O)[C@@H](C)C2 [SCHIZANDRIN]" reported_endpoint=pIC50 numeric_readout=5.27
compound="COC1=C(OC)C23C(=C/C1=N\\OC(=O)C1CC1)C[C@H](C)[C@@]2(C)Cc1cc(OC)c(OC)c(OC)c13 (some centres not stated)" reported_endpoint=pIC50 numeric_readout=4.22

The measured values listed here are drawn from ChEMBL document CHEMBL4622952.
